Listed here: items and their measured MIC90.
Tested on: S. aureus
experiment.description: Minimum inhibitory concentration, broth microdilution (CLSI)
Type: cell-based, Staphylococcus aureus
measurement.setup: Staphylococcus aureus; broth microdilution in MHB, 18–24 h
Entry rule: numbers only, all in µM.

The cases that follow already have their MIC90 on record.
NCCNC(=O)[C@H](Cc1c[nH]c2ccccc12)NC(=O)c1cc(Br)ccc1NC(=O)c1ccccc1-c1ccccc1 [Compound 12i] ... 15.6
NCCCNC(=O)[C@H](Cc1c[nH]c2ccccc12)NC(=O)c1cc(Br)ccc1NC(=O)Cc1cccc2ccccc12 [Compound 13b] ... 62.5
NCCNC(=O)[C@H](Cc1c[nH]c2ccccc12)NC(=O)c1cc(Br)ccc1NC(=O)c1cccs1 [Compound 12g] ... 125
COc1ccc2ccccc2c1C(=O)Nc1ccc(Br)cc1C(=O)N[C@@H](Cc1c[nH]c2ccccc12)C(=O)NCCCN [Compound 13c] ... 15.6
NCCCC[C@H](N)C(=O)NCCNC(=O)[C@H](Cc1c[nH]c2ccccc12)NC(=O)c1cc(Br)ccc1NC(=O)c1ccc2ccccc2c1 [Compound 19a] ... 15.6

Problem: Field request: MIC90 | item: NCCNC(=O)[C@H](Cc1c[nH]c2ccccc12)NC(=O)c1cc(Br)ccc1NC(=O)c1ccc2ccccc2n1 [Compound 12e]
Result: 15.6

Problem: Field request: MIC90 | item: CC(C)(C)c1ccc(-c2ccc(N)c(C(=O)N[C@@H](Cc3c[nH]c4ccccc34)C(=O)NCCN)c2)cc1 [Compound 16a]
Result: 7.8

Problem: Field request: MIC90 | item: NCCNC(=O)[C@H](Cc1c[nH]c2ccccc12)NC(=O)c1cc(Br)ccc1NC(=O)c1cc2ccccc2[nH]1 [Compound 12f]
Result: 125

* * *

Test system: E. coli
experiment.description: Minimum inhibitory concentration, broth microdilution (CLSI)
Format: cell-based, Escherichia coli
measurement.setup: Escherichia coli; broth microdilution in MHB, 18–24 h
experimental.readout: MIC90

The cases that follow already have their MIC90 on record.
NCCNC(=O)[C@H](Cc1c[nH]c2ccccc12)NC(=O)c1cc(Br)ccc1N ... > 125 µM
NCCCNC(=O)[C@H](Cc1c[nH]c2ccccc12)NC(=O)c1cc(Br)ccc1NC(=O)c1ccc2ccccc2c1 [Compound 13a] ... > 125 µM

Problem: Param readout= MIC90; system= E. coli; entry= NCCNC(=O)[C@H](Cc1c[nH]c2ccccc12)NC(=O)c1cc(-c2ccc(C(F)(F)F)cc2)ccc1N [Compound 16d] ; returns value.
Result: > 125 µM

Problem: Param readout= MIC90; system= E. coli; entry= CC(C)(C)c1ccc(-c2ccc(N)c(C(=O)N[C@@H](Cc3c[nH]c4ccccc34)C(=O)NCCN)c2)cc1 [Compound 16a] ; returns value.
Result: > 125 µM

Problem: Param readout= MIC90; system= E. coli; entry= COc1ccc2ccccc2c1C(=O)Nc1ccc(Br)cc1C(=O)N[C@@H](Cc1c[nH]c2ccccc12)C(=O)NCCN [Compound 12c] ; returns value.
Result: > 125 µM

Problem: Param readout= MIC90; system= E. coli; entry= NCCNC(=O)[C@H](Cc1c[nH]c2ccccc12)NC(=O)c1cc(Br)ccc1NC(=O)c1ccc(-c2ccccc2)cc1 [Compound 12k] ; returns value.
Result: > 125 µM

Problem: Param readout= MIC90; system= E. coli; entry= NCCNC(=O)[C@H](Cc1c[nH]c2ccccc12)NC(=O)c1cc(-c2ccc3ccccc3c2)ccc1N [Compound 16b] ; returns value.
Result: 31.2 µM
